test system: SMN; experiment: Inhibition of PDGF-stimulated SMN increase in fibroblasts by kinase/receptor inhibitors; format: cell-based, human; details: inhibitor at the concentration (nM), fibroblast stimulation with PDGF
Outcome Measure: SMN Cytoplam (inhibition of PDGF-stimulated SMN increase) (%)
The response must be a number in % with no trailing unit.

[ask] // returns reported SMN Cytoplam (inhibition of PDGF-stimulated SMN increase) for input CC(=O)O[C@@H]1[C@@H](OC(C)=O)[C@@H](O)[C@H](Oc2c(-c3ccc(O)cc3)oc3cc(O)cc(O)c3c2=O)O[C@H]1C [SL-0101]
[reply] 20

[ask] // returns reported SMN Cytoplam (inhibition of PDGF-stimulated SMN increase) for input C[S+]([O-])c1ccc(-c2nc(-c3ccc(F)cc3)c(-c3ccncc3)[nH]2)cc1 (stereo not shown) [SB203580]
[reply] 20

[ask] // returns reported SMN Cytoplam (inhibition of PDGF-stimulated SMN increase) for input O=c1cc(N2CCOCC2)oc2c(-c3ccccc3)cccc12 [LY294002]
[reply] 100

[ask] // returns reported SMN Cytoplam (inhibition of PDGF-stimulated SMN increase) for input CO[C@H]1C[C@@H]2CC[C@@H](C)[C@@](O)(O2)C(=O)C(=O)N2CCCC[C@H]2C(=O)O[C@H]([C@H](C)C[C@@H]2CC[C@@H](O)[C@H](OC)C2)CC(=O)[C@H](C)/C=C(\C)[C@@H](O)[C@@H](OC)C(=O)[C@H](C)C[C@H](C)/C=C/C=C/C=C/1C [Rapamycin]
[reply] 80

[ask] // returns reported SMN Cytoplam (inhibition of PDGF-stimulated SMN increase) for input COc1cccc(-c2cc(=O)c3ccccc3o2)c1N [PD98059]
[reply] 20

[ask] // returns reported SMN Cytoplam (inhibition of PDGF-stimulated SMN increase) for input Oc1ccc(-c2nc(-c3ccc(F)cc3)c(-c3ccncc3)[nH]2)cc1 [SB202190]
[reply] 20

###

test system: SMN; assay: SMN immunofluorescence quantification (cytoplasm, nucleus, GEMs) in fibroblasts from SMA patients; format: cell-based, human; settings: SMA patient fibroblasts, substance alone
Outcome Measure: levels of cytoplasmic and nuclear SMN (in words)

CC(=O)C1=C(O)[C@@H]2[C@H]3c4c[nH]c5cccc(c45)C[C@H]3C(C)(C)N2C1=O [Cyclopiazonic acid] ... not active
CC(=O)N[C@@H](CSC(=O)[C@]1([C@@H](O)C(C)C)NC(=O)[C@H](C)[C@@H]1O)C(=O)O [Lactacystin] ... increase in SMN levels
Cc1c(C(=O)c2cccc3ccccc23)c2cccc3c2n1[C@H](CN1CCOCC1)CO3 [WIN 55, 212-2] ... increase in SMN levels
O=C(CCCCCCC(=O)Nc1ccccc1)NO [SAHA, Suberoylanilide Hydroxamic Acid] ... increase in SMN levels

[ask] // returns reported levels of cytoplasmic and nuclear SMN (in words) for input C[C@@H]1O[C@@H](O[C@H]2C[C@@H](O)[C@]3(CO)[C@H]4[C@H](O)C[C@]5(C)[C@@H](C6=CC(=O)OC6)CC[C@]5(O)[C@@H]4CC[C@]3(O)C2)[C@H](O)[C@H](O)[C@H]1O [Ouabain]
[reply] increase in SMN levels

[ask] // returns reported levels of cytoplasmic and nuclear SMN (in words) for input COC(=O)C1=C(C)NC(C)=C([N+](=O)[O-])C1c1ccccc1C(F)(F)F (centres unmarked) [Bay K8644]
[reply] not active

###

tested on: SMN; test: SMN levels in mouse (ES-cell derived) motor neurons; assay type: cell-based; settings: mouse motor neurons
Outcome Measure: SMN levels in motor neurons (in words)

C=C(C)[C@H]1Cc2c(ccc3c2O[C@@H]2COc4cc(OC)c(OC)cc4[C@@H]2C3=O)O1 [roteonone] ... decrease
COc1cc2c(cc1OC)[C@@H]1C(=O)c3ccc4c(c3O[C@@H]1CO2)C=CC(C)(C)O4 [deguelin] ... decrease

###

test system: SMN; experiment: High-content fibroblast screen for compounds that modulate SMN level; details: human fibroblasts, 2-3 days with compound
Outcome Measure: SMN level in fibroblast screen (increase or decrease)

The examples below pair each entry with its known result.
OCCN(CCO)c1nc(N2CCCCC2)c2nc(N(CCO)CCO)nc(N3CCCCC3)c2n1 ... increase SMN
N#CCCc1ccc2c(c1)-c1[nH]c3ccc([N+](=O)[O-])cc3c1CC(=O)N2 ... SMN is increase
COc1ccc(C[C@H]2NC[C@H](O)[C@H]2OC(C)=O)cc1 ... increase SMN
Clc1ccc2ncnc(NCc3ccc4c(c3)OCO4)c2c1 ... increase SMN

Let us examine a further case.
[ask] // returns reported SMN level in fibroblast screen (increase or decrease) for input "O=C(Nc1cc(C(F)(F)F)cc(C(F)(F)F)c1)c1cc(Cl)ccc1O"
[reply] SMN is increase

###

test system: SMN; assay: Inhibition of PDGF-stimulated SMN increase in fibroblasts by kinase/receptor inhibitors; type: cell-based, human; details: inhibitor at the concentration of the table row, PDGF stimulated fibroblasts
Outcome Measure: Cell Number (affected by inhibitor)

Oc1ccc(-c2nc(-c3ccc(F)cc3)c(-c3ccncc3)[nH]2)cc1 ... Yes
COc1cccc(-c2cc(=O)c3ccccc3o2)c1N ... Yes
C[S+]([O-])c1ccc(-c2nc(-c3ccc(F)cc3)c(-c3ccncc3)[nH]2)cc1 (stereo not shown) ... Yes
N#CC(=C(/N)Sc1ccccc1N)/C(C#N)=C(\N)Sc1ccccc1N ... No

###

test system: SMN; assay: High-content fibroblast screen for compounds that modulate SMN level; settings: human fibroblasts, 2-3 days with compound
Outcome Measure: SMN level in fibroblast screen (increase or decrease)

The examples below pair each entry with its known result.
CC[C@@]1([C@@H]2O[C@@H]([C@H]3O[C@@](O)(CO)[C@H](C)C[C@@H]3C)C[C@@H]2C)CC[C@H]([C@]2(C)CC[C@]3(C[C@H](O)[C@@H](C)[C@@H]([C@@H](C)[C@@H](OC)[C@H](C)C(=O)O)O3)O2)O1 ... increase SMN
O=C(CCCCCCC(=O)Nc1ccccc1)NO [SAHA, Suberoylanilide Hydroxamic Acid] ... increase SMN
Nc1ccc(-c2cccc3c(=O)cc(N4CCOCC4)oc23)cc1 ... decreased SMN
COc1cc2ncc(-c3ccccc3)nc2cc1OC ... decreased SMN
COc1ccc(CNC(=O)Nc2ncc([N+](=O)[O-])s2)cc1 ... SMN is increase

[ask] // returns reported SMN level in fibroblast screen (increase or decrease) for input "COc1cc(OC)c2cc(-c3ccncc3)cnc2c1.Cl.Cl"
[reply] decreased SMN

[ask] // returns reported SMN level in fibroblast screen (increase or decrease) for input CCCCC/C=C\C/C=C\C/C=C\C/C=C\CCCC(=O)NCCO [Anandamide]
[reply] increase SMN

[ask] // returns reported SMN level in fibroblast screen (increase or decrease) for input "C[C@H](CCC(=O)O)C[C@H](C)C[C@H](C)C(=O)/C=C(\O)[C@H](C)C[C@H](C)C/C=C/[C@@H](C)[C@@H](O)[C@@H](C)[C@@H](O)C[C@@H]1CC[C@@](C)([C@H]2CC[C@@](C)([C@@H](C)O)O2)O1"
[reply] increase SMN

[ask] // returns reported SMN level in fibroblast screen (increase or decrease) for input "O=C1Cc2c([nH]c3ccc([N+](=O)[O-])cc23)-c2ccccc2N1"
[reply] SMN is increase

[ask] // returns reported SMN level in fibroblast screen (increase or decrease) for input "CC(C)[C@@H]1NC(=O)[C@H](C)OC(=O)[C@@H](C(C)C)NC(=O)[C@@H](C(C)C)OC(=O)[C@H](C(C)C)NC(=O)[C@H](C)OC(=O)[C@@H](C(C)C)NC(=O)[C@@H](C(C)C)OC(=O)[C@H](C(C)C)NC(=O)[C@H](C)OC(=O)[C@@H](C(C)C)NC(=O)[C@@H](C(C)C)OC1=O"
[reply] increase SMN

###

system: SMN; assay: Inhibition of PDGF-stimulated SMN increase in fibroblasts by kinase/receptor inhibitors; assay type: cell-based, human; conditions: inhibitor at the concentration (nM), fibroblast stimulation with PDGF
Outcome Measure: SMN GEM Intensity (inhibition of PDGF-stimulated SMN increase)

Oc1ccc(-c2nc(-c3ccc(F)cc3)c(-c3ccncc3)[nH]2)cc1 ... some
CO[C@H]1C[C@@H]2CC[C@@H](C)[C@@](O)(O2)C(=O)C(=O)N2CCCC[C@H]2C(=O)O[C@H]([C@H](C)C[C@@H]2CC[C@@H](O)[C@H](OC)C2)CC(=O)[C@H](C)/C=C(\C)[C@@H](O)[C@@H](OC)C(=O)[C@H](C)C[C@H](C)/C=C/C=C/C=C/1C ... 80-100%
C[S+]([O-])c1ccc(-c2nc(-c3ccc(F)cc3)c(-c3ccncc3)[nH]2)cc1 (stereo not drawn) ... some

###

system: SMN; experiment: High-content fibroblast screen for compounds that modulate SMN level; conditions: human fibroblasts, 2-3 days with compound;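 further: Anti-SMN immunostaining with confocal imaging of nuclear and cytoplasmic SMN and gem counts, tested at 0.1, 1 and 10 uM, fold change relative to negative control wells on each plate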
Residues, ends and D or L forms follow the SMILES beside them. *: point of attachment. Cbz = O=C(OCc1ccccc1)*
Outcome Measure: SMN level in fibroblast screen (increase or decrease)

The examples below pair each entry with its known result.
CC(C)C[C@@H](C=O)NC(=O)[C@H](CC(C)C)NC(=O)[C@H](CC(C)C)NC(=O)OCc1ccccc1 [MG-132] (Cbz-Leu-Leu-Leu-aldehyde) ... increase SMN
C[C@@H]1O[C@@H](O[C@H]2C[C@@H](O)[C@]3(CO)[C@H]4[C@H](O)C[C@]5(C)[C@@H](C6=CC(=O)OC6)CC[C@]5(O)[C@@H]4CC[C@]3(O)C2)[C@H](O)[C@H](O)[C@H]1O [Ouabain] ... increase SMN
CC(=O)O[C@H]1C[C@H](O[C@H]2[C@@H](O)C[C@H](O[C@H]3[C@@H](O)C[C@H](O[C@H]4CC[C@@]5(C)[C@H](CC[C@@H]6[C@@H]5C[C@@H](O)[C@]5(C)[C@@H](C7=CC(=O)OC7)CC[C@]65O)C4)O[C@@H]3C)O[C@@H]2C)O[C@H](C)[C@H]1O[C@@H]1O[C@H](CO)[C@@H](O)[C@H](O)[C@H]1O [Lanatoside C] ... increase SMN
C/C=C(/C)C(=O)O[C@H]1C(C)=C2[C@H]([C@@H]1OC(=O)CCCCCCC)[C@@](C)(OC(C)=O)C[C@H](OC(=O)CCC)[C@@]1(O)[C@H]2OC(=O)[C@@]1(C)O [Thapsigargin] ... increase SMN
O=C1Nc2ccc3ncsc3c2C1=Cc1cnc[nH]1 [PKR inhibitor] ... SMN is increase

[ask] // returns reported SMN level in fibroblast screen (increase or decrease) for input C[C@H]1O[C@@H](O[C@H]2[C@@H](O)C[C@H](O[C@H]3[C@@H](O)C[C@H](O[C@H]4CC[C@@]5(C)[C@H](CC[C@@H]6[C@@H]5CC[C@]5(C)[C@@H](C7=CC(=O)OC7)CC[C@]65O)C4)O[C@@H]3C)O[C@@H]2C)C[C@H](O)[C@@H]1O [Dititoxin]
[reply] increase SMN

[ask] // returns reported SMN level in fibroblast screen (increase or decrease) for input C[C@H]1O[C@@H](O[C@H]2[C@@H](O)C[C@H](O[C@H]3[C@@H](O)C[C@H](O[C@H]4CC[C@@]5(C)[C@H](CC[C@@H]6[C@@H]5C[C@@H](O)[C@]5(C)[C@@H](C7=CC(=O)OC7)CC[C@]65O)C4)O[C@@H]3C)O[C@@H]2C)C[C@H](O)[C@@H]1O [Digoxin]
[reply] increase SMN

[ask] // returns reported SMN level in fibroblast screen (increase or decrease) for input O=C1Nc2ccc3ncsc3c2/C1=C/Nc1ccc(S(=O)(=O)Nc2ccccn2)cc1 [GW8510]
[reply] SMN is increase

[ask] // returns reported SMN level in fibroblast screen (increase or decrease) for input Cc1c(C(=O)c2cccc3ccccc23)c2cccc3c2n1[C@H](CN1CCOCC1)CO3 [WIN 55, 212-2]
[reply] increase SMN

[ask] // returns reported SMN level in fibroblast screen (increase or decrease) for input O=C(Nc1ccc([N+](=O)[O-])cc1Cl)c1cc(Cl)ccc1O [Niclosamide]
[reply] SMN is increase

[ask] // returns reported SMN level in fibroblast screen (increase or decrease) for input CNc1ccc2oc(C[C@H]3O[C@@]4(CC[C@H]3C)O[C@H]([C@H](C)C(=O)c3ccc[nH]3)[C@H](C)C[C@H]4C)nc2c1C(=O)O [Calcimycin]
[reply] increase SMN

[ask] // returns reported SMN level in fibroblast screen (increase or decrease) for input CC(=O)N[C@@H](CSC(=O)[C@]1([C@@H](O)C(C)C)NC(=O)[C@H](C)[C@@H]1O)C(=O)O [Lactacystin]
[reply] increase SMN

Origin of the recorded values: patent US20120010178A1
